# Test system: T-cell
# ASSAY DETAILS: Immunosuppressive activity in anti-CD3/anti-CD28-stimulated human T cells assessed as reduction in cell viability after 96 hrs by CFSE dye based flow cytometric analysis
# Type: functional
The source made the active and inactive calls. No cut-off for these calls is given here.
MEASURED PARAMETER: Activity

The cases that follow already have their Activity on record.
CHEMICAL STRING	Activity
C[C@@H]([C@H](O)[C@@H](C)c1ccc(CO)cc1/C=C/CO)[C@H](C)O	inactive
CCC(=O)O[C@@H]([C@H](C)C(C)=O)[C@@H](C)c1ccc(CO)cc1/C=C/CO	inactive
CC(=O)[C@@H](C)[C@H](O)[C@@H](C)c1ccc(CO)cc1/C=C/CO	inactive
CCC1=CC(=O)[C@@H](C)[C@@H]([C@@H](C)c2ccc(CO)cc2/C=C/CO)O1	inactive
CC(=O)[C@@H](C)[C@H](O)[C@@H](C)c1ccc(C)cc1/C=C/CO	inactive
CCC(=O)O[C@@H]([C@H](C)C(C)=O)[C@@H](C)c1ccc(C)cc1/C=C/CO	inactive
CC(=O)[C@@H](C)[C@H](O)[C@@H](C)c1ccc(C)cc1/C=C/C(=O)O	inactive

Now for the compound whose Activity we want.
Exam item: State Activity (T-cell) of CC(=O)OCc1ccc([C@H](C)[C@@H](O)[C@H](C)C(C)=O)c(/C=C/CO)c1 .
Marked response: inactive

----------
Exercise: state measured CC50 at 96 h for each of the compounds provided.
# ASSAY DETAILS: Cytotoxicity against human naive T cells assessed as reduction in cell viability after 96 hrs by flow cytometric analysis
# Format: cell-based

CHEMICAL STRING	MEASURED PARAMETER	ASSAY RESULT
Cc1ccc([C@H](C)[C@@H](O)[C@H](C)[C@H](C)O)c(/C=C/CO)c1	CC50 at 96 h	> 80 µM

Now for the compound whose CC50 at 96 h we want.
Exam item: Please indicate CC50 at 96 h recorded for CCC1=CC(=O)[C@@H](C)[C@@H]([C@@H](C)c2ccc(C)cc2/C=C/CO)O1
Marked response: > 80 µM
